From: patent US20170253656A1

target or test system: T1, hu-CD74 antigen (R&D SYSTEMS catalog #3590-CD-050) (human, UniProt P04233-2 73-232, limits assumed)
T1 construct: Bought antigen; also called rhCD74; human CD74
T1 sequence (looked up): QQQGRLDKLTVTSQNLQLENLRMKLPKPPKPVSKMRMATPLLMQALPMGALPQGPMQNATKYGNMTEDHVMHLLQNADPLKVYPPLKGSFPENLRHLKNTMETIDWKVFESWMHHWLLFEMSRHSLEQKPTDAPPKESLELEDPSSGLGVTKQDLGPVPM
protocol: SPR (Biacore T200), captured on anti-human Fc, rhCD74 analyte
For each record, write down the corresponding koff.
Give bare numbers, in s⁻¹.

| binder | koff, s⁻¹ |
| --- | --- |
| 1251-A03 heavy chain paired with VL SEQ ID NO: 272 (antibody, V domains shown) VH: QVQLVESGGGVVQPGRSLRLSCAASGFAFSDHGMHWVRQAPDKGLEWVAVIWYDGSHKIYADSVKGRFTISRDNSKNTLYLQMNSLRAEDTAVYYCARGGSLAGGAVYGTDVWGQGTTVTVSS VL: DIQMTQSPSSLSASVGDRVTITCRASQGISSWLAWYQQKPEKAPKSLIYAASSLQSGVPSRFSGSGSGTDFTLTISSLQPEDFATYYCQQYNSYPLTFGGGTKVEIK | 0.000305 |
| 1251-E06 heavy chain paired with VL SEQ ID NO: 272 (antibody, V domains shown) VH: QVQLVESGGGVVQPGRSLRLSCAASGFTFDSYGMHWVRQAPDKGLEWVAVIWYDGSNKVYADSVKGRFTISRDNSKNTLYLQMNSLRAEDTAVYYCARGGMVGQGAMFGLDVWGQGTTVTVSS VL: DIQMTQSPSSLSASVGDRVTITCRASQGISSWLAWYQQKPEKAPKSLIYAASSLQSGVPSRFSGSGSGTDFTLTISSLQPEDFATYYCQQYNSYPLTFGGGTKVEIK | 0.000426 |
| 1251-A02 heavy chain paired with VL SEQ ID NO: 272 (antibody, V domains shown, Selected from a Fab library; VH3-33 / Vk1-12) VH: QVQLVESGGGVVQPGRSLRLSCAASGFAFSDHGMHWVRQAPDKGLEWVAVIWYDGSHKIYADSVKGRFTISRDNSKNTLYLQMNSLRAEDTAVYYCARGGSLAGGAVYGTDVWGQGTTVTVSS VL: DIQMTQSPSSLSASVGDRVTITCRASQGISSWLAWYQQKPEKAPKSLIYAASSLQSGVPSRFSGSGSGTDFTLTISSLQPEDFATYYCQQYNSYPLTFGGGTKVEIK | 0.000302 |
| 1251-D02 heavy chain paired with VL SEQ ID NO: 272 (antibody, V domains shown) VH: QVQLVESGGGVVQPGRSLRLSCAASGFSFASHGMHWVRQAPDKGLEWVAVIWDDGSDRYYADSVKGRFTISRDNSKNTLYLQMNSLRAEDTAVYYCARGGTRVLGAIHGTDVWGQGTTVTVSS VL: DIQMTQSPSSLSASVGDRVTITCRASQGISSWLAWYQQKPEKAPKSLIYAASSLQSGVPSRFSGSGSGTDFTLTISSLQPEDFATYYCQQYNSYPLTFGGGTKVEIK | 0.000167 |

Now take the following binder into account.
I am curious: what koff value has been reported for 1251-A06 heavy chain paired with VL SEQ ID NO: 272 (antibody, V domains shown) VH: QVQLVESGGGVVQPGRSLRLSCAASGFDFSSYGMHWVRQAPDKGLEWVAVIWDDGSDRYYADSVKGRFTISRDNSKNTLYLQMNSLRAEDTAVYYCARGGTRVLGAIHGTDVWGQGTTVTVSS VL: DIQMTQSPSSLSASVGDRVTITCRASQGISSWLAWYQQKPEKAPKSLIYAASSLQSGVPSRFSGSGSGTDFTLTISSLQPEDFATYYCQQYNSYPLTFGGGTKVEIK ?
9.99e-05
